These entries and their values trace back to PubChem BioAssay (NCATS).

Test: Quantitative High-Throughput drug screen in 47 multiple myeloma cell lines against the NCATS MIPE library collection: NCIH929_DSMZ cell viability assay (AID 1918978); further: nearly all actives have a fitted effect of over 35% in size
Details: NCI-H929 myeloma viability, CellTiter-Glo ATP, 48 h; series mostly up to 45.8 µM
Inconclusive results are not listed. Activity calls are given as the source filed them. The call rests on the fitted dose curve; in most records, active means well fitted cell-killing curve with a large enough effect; inconclusive means small, poorly fitted or top-dose-only effect; inactive means no such curve, though single readings can be large or run the other way.
Bench note: report the call from active, inactive

Consider the worked cases shown below.
1) CN(C)CCOc1cc(-c2cn[nH]c2)ccc1NC(=O)C1COc2ccccc2O1 (stereo not drawn); active
2) CC(=O)O[C@]1(C(C)=O)CC[C@H]2[C@@H]3C=C(Cl)C4=CC(=O)[C@@H]5C[C@H]5[C@]4(C)[C@@H]3CC[C@@]21C; active
3) CC(C)c1onc(-c2c(Cl)cccc2Cl)c1COc1ccc(C=Cc2cccc(C(=O)O)c2)c(Cl)c1; inactive
4) CCC(C)SSc1ncc[nH]1 (stereo not drawn); active
5) COc1cc([C@H]2Oc3cc([C@H]4Oc5cc(O)cc(O)c5C(=O)[C@H]4O)ccc3O[C@H]2CO)ccc1O; active
6) CCOC(=O)N1c2ccc(C(F)(F)F)cc2[C@@H](N(Cc2cc(C(F)(F)F)cc(C(F)(F)F)c2)C(=O)OC)C[C@H]1CC; active

**Query** # outcome recorded in this test, key = CN(C(Cc1ccc(OS(=O)(=O)c2cccc3cnccc23)cc1)C(=O)N1CCN(c2ccccc2)CC1)S(=O)(=O)c1cccc2cnccc12 (stereo not drawn)
**Result** active

**Query** What about COc1ccnc(CS(=O)c2nc3ccc(OC(F)F)cc3[nH]2)c1OC (stereo not drawn) ?
**Result** active

###

Assay: qHTS of pediatric cancer cell lines to identify multiple opportunities for drug repurposing: Primary screen for OHS-50 cells (AID 1347103); further: nearly all actives have a fitted effect of over 40% in size
Details: OHS-50 osteosarcoma viability, CellTiter-Glo luminescence, 48 h; series mostly up to 57.3 µM
Results filed as inconclusive are left out. Active and inactive are the calls of the source. Calls come from the whole dose curve; as a rule, active = well fitted cell-killing curve with a large enough effect; inconclusive = small, poorly fitted or top-dose-only effect; inactive = no such curve, though single readings can be large or run the other way.
// one of True (active), False (inactive), no free text

1) CCOC(=O)[C@H](CCc1ccccc1)N[C@@H](C)C(=O)N1CCCC1C(=O)O (stereo partly drawn); False

**Query** Look up the recorded call for `CCOC(=O)[C@@H](N)CCC(=O)N[C@@H](CSCc1ccccc1)C(=O)N[C@@H](C(=O)OCC)c1ccccc1` in this test.
**Result** False

**Query** Another compound to look at: `COc1c(C)cnc(Cn2cnc3c(Cl)nc(N)nc32)c1C`
**Result** True

###

Experiment: qHTS of pediatric cancer cell lines to identify multiple opportunities for drug repurposing: Primary screen for Rh30 cells (AID 1347107); further: nearly all actives have a fitted effect of over 75% in size
Details: Rh30 rhabdomyosarcoma viability, CellTiter-Glo luminescence, 48 h; series mostly up to 46 µM
Results filed as inconclusive are left out. Activity calls are given as the source filed them. Calls come from the whole dose curve; as a rule, active = well fitted cell-killing curve with a large enough effect; inconclusive = small, poorly fitted or top-dose-only effect; inactive = no such curve, though single readings can be large or run the other way.
Can you answer with just one of these options? active, inactive

Field: example entries. Status: answers known.
1. O=c1[nH]nc(OCCCc2ccc(Cl)cc2)c(NCc2cccnc2)c1Br; active
2. COc1ccc(-c2nc3ccc(C4=NNC(=O)CC4C)cc3[nH]2)cc1 (stereo not given); inactive
3. Oc1ccc(C=Cc2cc(O)cc(O)c2)cc1; inactive

**Query** Just curious, what result did `O=c1cc(-c2ccc(O)c(O)c2)oc2cc(O)cc(O)c12` get here?
**Result** inactive

**Query** Also check `C[C@]12CC[C@@H]3c4ccc(O)cc4CC[C@H]3[C@H]1[C@@H](O)[C@@H](O)[C@H]2O`
**Result** inactive

###

Test: qHTS for identification of novel therapeutic agents for treatment of microphthalmiaassociated transcription factor (MiT) renal cell carcinoma (RCC) (AID 1963991);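 further: curves scaled with 100% = DMSO viability and 0% = empty wells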
Conditions: TFE3-RCC viability, CellTiter-Glo, 48 h; measured here: UOK145 Z-AUC; stronger effect = lower value
Results filed as inconclusive are left out.
Threshold 0.3: z-score strictly smaller gives label 1, otherwise label 0.

**Query** Is the reported z-score for `Cc1ccc(C(=O)N(CCCN)[C@@H](c2oc3cc(Cl)ccc3c(=O)c2Cc2ccccc2)C(C)C)cc1` strictly below 0.3?
**Result** label 1

**Query** Note, next up: `CN(CC=CC#CC(C)(C)C)Cc1cccc2ccccc12`
**Result** label 0

**Query** Moving on to `O=c1[nH]c(=O)n([C@H]2C[C@@H](O)[C@@H](CO)O2)cc1I`
**Result** label 0

**Query** Now consider `CCCCOCCOc1nc(-c2ccc(C(=O)O)c(F)c2)sc1C` .
**Result** label 0

**Query** How about `CCCCC[C@H](O)C=C[C@H]1[C@H](O)CC(=O)[C@H]1CCCCCCC(=O)O` ?
**Result** label 0

###

Test system: P94_40
Test: qHTS profiling for inhibitors of Plasmodium falciparum proliferation (AID 504749); further: nearly all actives have a fitted effect of over 60% in size
Conditions: P. falciparum in erythrocytes, SYBR Green DNA, 72 h; series mostly up to 28.7 µM
Records with an inconclusive call do not appear. Activity calls are given as the source filed them. The call rests on the fitted dose curve; in most records, active means well fitted inhibition curve with a large enough effect; inconclusive means small, poorly fitted or top-dose-only effect; inactive means flat fitted curve, though single readings scatter.
Write down the outcome that applies. Available outcomes: YES = active, NO = inactive

**Query** What was the test verdict on Cc1cc2nc3c(=O)[nH]c(=O)nc-3n(CC(O)C(O)C(O)CO)c2cc1C (stereo not given) ?
**Result** NO

**Query** And for `NS(=O)(=O)c1cc(Cl)c(Cl)c(S(N)(=O)=O)c1` ?
**Result** NO

**Query** Field entry: `N#Cc1c(N(CC(=O)O)CC(=O)O)sc(C(=O)O)c1CC(=O)O`
**Result** NO

**Query** Now try `C=C1c2cccc(O)c2C(O)=C2C(=O)[C@@]3(O)C(O)=C(C(N)=O)C(=O)[C@@H](N(C)C)[C@@H]3[C@@H](O)[C@H]12` .
**Result** NO

**Query** Would you kindly repeat that for `CS(=O)(=O)c1ccc(C2=C(c3ccccc3)C(=O)OC2)cc1` ?
**Result** NO

**Query** What would you report for `COc1c(C)c2c(c(O)c1CC=C(C)CCC(=O)OCCN1CCOCC1)C(=O)OC2` ?
**Result** YES

**Query** Follow-up item: O=C1C(CCC(O)c2ccc(F)cc2)C(c2ccc(O)cc2)N1c1ccc(F)cc1 (stereo not given)
**Result** NO

**Query** Try the compound `COc1cc2c(cc1OC)CC(=O)N(CCCN(C)C[C@H]1Cc3cc(OC)c(OC)cc31)CC2`
**Result** NO

**Query** What do you get for `CC(C)CN(C[C@@H](O)[C@H](Cc1ccccc1)NC(=O)O[C@H]1CO[C@H]2OCC[C@H]21)S(=O)(=O)c1ccc(N)cc1` ?
**Result** NO

**Query** Request: Clc1ccc(COC(Cn2ccnc2)c2ccc(Cl)cc2Cl)c(Cl)c1 (stereo not given)
**Result** YES

###

Experiment: qHTS drug screen for cell cycle checkpoint inhibitors in PARPi-resistant BRCA-mutant ovarian cancer cell lines. (AID 1963452)
Settings: PEO1/OlaR viability, CellTiter-Glo luminescence, 96 h; measured here: PEO1 parental Z-AUC; stronger effect = lower value
property name: Z-AUC
Reply with just the number.

Look over these answered cases.
1) CN1N=C(N)c2cn([C@@H]3O[C@H](COP(=O)(O)O)[C@@H](O)[C@@H]3O)c3ncnc1c23; -0.488
2) Cc1cc2nc3c(=O)[nH]c(=O)nc-3n(CC(O)C(O)C(O)CO)c2cc1C (stereo not given); 0.9
3) CN1CCc2c(n(Cc3ccc(C(=O)NO)cc3)c3ccccc23)C1; 0.892
4) CN(C)CCOc1cc(-c2cn[nH]c2)ccc1NC(=O)C1COc2ccccc2O1 (stereo not given); 0.743

Moving on to another compound below.
**Query** What does the record list as Z-AUC for `CN1CC(=O)NC1=NC(=O)Nc1cccc(Cl)c1` ?
**Result** 0.15

###

Test: Quantitative High-Throughput drug screen in 47 multiple myeloma cell lines against the NCATS MIPE library collection: KMS28BM_JCRB cell viability assay (AID 1919874); further: nearly all actives have a fitted effect of over 35% in size
Settings: CellTiter-Glo ATP, 48 h; series mostly up to 45.8 µM
Inconclusive results are not listed. Activity calls are given as the source filed them. The call rests on the fitted dose curve; in most records, active means well fitted cell-killing curve with a large enough effect; inconclusive means small, poorly fitted or top-dose-only effect, or effect the other way; inactive means no such curve, though single readings can be large or run the other way.
Entry note: the call must match one of 1.0 (active), 0.0 (inactive)

**Query** Called result for `O=c1[nH]c(=O)n([C@H]2C[C@@H](O)[C@@H](CO)O2)cc1C(F)(F)F`
**Result** 1.0

**Query** For `O=C(Nc1cccc(C(F)(F)F)c1)Nc1cc(S(=O)(=O)NC2CC2)ccc1-c1ccsc1` then?
**Result** 1.0

**Query** Also need CC1C(=O)OC2C(O)C34C5CC(C(C)(C)C)C36C(OC(=O)C6O)OC4(C(=O)O5)C12O (centres undefined) , thanks.
**Result** 0.0

**Query** Also `Cc1ccc(NC(=O)c2ccc(CN3CCN(C)CC3)cc2)cc1Nc1nc(-c2cccnc2)cs1` ?
**Result** 1.0

**Query** Ok, now Nc1ncnc2c1c(-c1cccc(OCc3ccccc3)c1)cn2C1CC(CN2CCC2)C1 (centres undefined)
**Result** 1.0

**Query** For `CC1(COc2ccc3c(c2)ncn3-c2ccc3cccc(N4CCC(N)CC4)c3n2)COC1` then?
**Result** 1.0

**Query** Request: `NC(=O)c1ccc(N(C(N)=O)c2c(F)cccc2F)nc1-c1ccc(F)cc1F`
**Result** 0.0

**Query** Try this compound next: `CCCCCCOC(=O)N=C(N)c1ccc(NCc2nc3cc(C(=O)N(CCC(=O)OCC)c4ccccn4)ccc3n2C)cc1`
**Result** 1.0

**Query** Next: `Cc1ccc(S(=O)(=O)OCC(=O)Nc2ccc(C(=O)O)c(O)c2)cc1`
**Result** 0.0
